- tested system: His-tagged BRD4 BD1 (46-168) (Homo sapiens, UniProt O60885)
- Construct: His-tagged BRD4 BD1 (46-168) and biotinylated histone H4K5/8/12/16(Ac) peptide
- experiment description: AlphaLISA competition assay, BRD4 BD1
- Assay type: binding
- test conditions: BRD4-BD1, AlphaLISA competition with biotinylated histone H4K5/8/12/16(Ac) peptide, 10 nM
pIC50: −log10 of the molar value.
parameter: pIC50

// worked examples, pIC50 included
{"molecule": "CNC(=O)COc1cc2cc(Nc3nc(N4CCC(CN5CCN(CC[C@H]6C[C@@H](Oc7ccc(C(C)(C)O)cc7-c7cn(C)c(=O)c8[nH]ccc78)C6)CC5)CC4)ncc3Cl)ccc2n(C)c1=O", "tested system": "His-tagged BRD4 BD1 (46-168) (Homo sapiens, UniProt O60885)", "pIC50": "> 8.30"}
{"molecule": "CNC(=O)COc1cc2cc(Nc3nc(N4CCN(CCN(C)C5CC(Oc6ccc(C(C)(C)O)cc6-c6cn(C)c(=O)c7[nH]ccc67)C5)CC4)ncc3Cl)ccc2n(C)c1=O (stereo not shown)", "tested system": "His-tagged BRD4 BD1 (46-168) (Homo sapiens, UniProt O60885)", "pIC50": "7.30 to 8.30"}
{"molecule": "CNC(=O)COc1cc2cc(Nc3nc(N4CCC(N5CCN(Cc6cccc(Oc7ccc(C(C)(C)O)cc7-c7cn(C)c(=O)c8[nH]ccc78)c6)CC5)CC4)ncc3Cl)ccc2n(C)c1=O", "tested system": "His-tagged BRD4 BD1 (46-168) (Homo sapiens, UniProt O60885)", "pIC50": "> 8.30"}

Return reported pIC50; argument: CCS(=O)(=O)Nc1ccc(Oc2ccc(OCCCN3CCN(CC4CCN(c5ncc(Cl)c(Nc6ccc7c(c6)cc(OCC(=O)NC)c(=O)n7C)n5)CC4)CC3)cc2)c(-c2cn(C)c(=O)c3[nH]ccc23)c1
7.30 to 8.30

###

- tested system: His-tagged BRD4 BD1 (46-168) (Homo sapiens, UniProt O60885)
- Construct: His-tagged BRD4 BD1 (46-168) and biotinylated histone H4K5/8/12/16(Ac) peptide
- experiment description: AlphaLISA competition assay, BRD4 BD1
- test conditions: BRD4-BD1, AlphaLISA competition with biotinylated histone H4K5/8/12/16(Ac) peptide, 10 nM
pIC50: −log10 of the molar value.
Measured pIC50 by item

// solved cases for pIC50 follow
{"compound": "CCS(=O)(=O)Nc1ccc(Oc2cccc(OCCN3CCN(CC4CCN(c5ncc(Cl)c(Nc6ccc7c(c6)cc(OCC(=O)NC)c(=O)n7C)n5)CC4)CC3)c2)c(-c2cn(C)c(=O)c3[nH]ccc23)c1 [Compound I-4]", "tested system": "His-tagged BRD4 BD1 (46-168) (Homo sapiens, UniProt O60885)", "pIC50": "6.30 to 7.30"}
{"compound": "CCS(=O)(=O)Nc1ccc(Oc2cccc(OCCCN3CCN(CC4CCN(c5ncc(Cl)c(Nc6ccc7c(c6)cc(OCC(=O)NC)c(=O)n7C)n5)CC4)CC3)c2)c(-c2cn(C)c(=O)c3[nH]ccc23)c1 [Compound I-6]", "tested system": "His-tagged BRD4 BD1 (46-168) (Homo sapiens, UniProt O60885)", "pIC50": "7.30 to 8.30"}

Query (compound): CCS(=O)(=O)Nc1ccc(Oc2ccc(CCN3CCN(CC4CCN(c5ncc(Cl)c(Nc6ccc7c(c6)cc(OCC(=O)NC)c(=O)n7C)n5)CC4)CC3)cc2)c(-c2cn(C)c(=O)c3[nH]ccc23)c1 [Compound I-16] ; field requested: pIC50
7.30 to 8.30
